# Assayed target: Kv11.1 (hERG) (Homo sapiens (Human))
# Sequence (Q12809 whole entry): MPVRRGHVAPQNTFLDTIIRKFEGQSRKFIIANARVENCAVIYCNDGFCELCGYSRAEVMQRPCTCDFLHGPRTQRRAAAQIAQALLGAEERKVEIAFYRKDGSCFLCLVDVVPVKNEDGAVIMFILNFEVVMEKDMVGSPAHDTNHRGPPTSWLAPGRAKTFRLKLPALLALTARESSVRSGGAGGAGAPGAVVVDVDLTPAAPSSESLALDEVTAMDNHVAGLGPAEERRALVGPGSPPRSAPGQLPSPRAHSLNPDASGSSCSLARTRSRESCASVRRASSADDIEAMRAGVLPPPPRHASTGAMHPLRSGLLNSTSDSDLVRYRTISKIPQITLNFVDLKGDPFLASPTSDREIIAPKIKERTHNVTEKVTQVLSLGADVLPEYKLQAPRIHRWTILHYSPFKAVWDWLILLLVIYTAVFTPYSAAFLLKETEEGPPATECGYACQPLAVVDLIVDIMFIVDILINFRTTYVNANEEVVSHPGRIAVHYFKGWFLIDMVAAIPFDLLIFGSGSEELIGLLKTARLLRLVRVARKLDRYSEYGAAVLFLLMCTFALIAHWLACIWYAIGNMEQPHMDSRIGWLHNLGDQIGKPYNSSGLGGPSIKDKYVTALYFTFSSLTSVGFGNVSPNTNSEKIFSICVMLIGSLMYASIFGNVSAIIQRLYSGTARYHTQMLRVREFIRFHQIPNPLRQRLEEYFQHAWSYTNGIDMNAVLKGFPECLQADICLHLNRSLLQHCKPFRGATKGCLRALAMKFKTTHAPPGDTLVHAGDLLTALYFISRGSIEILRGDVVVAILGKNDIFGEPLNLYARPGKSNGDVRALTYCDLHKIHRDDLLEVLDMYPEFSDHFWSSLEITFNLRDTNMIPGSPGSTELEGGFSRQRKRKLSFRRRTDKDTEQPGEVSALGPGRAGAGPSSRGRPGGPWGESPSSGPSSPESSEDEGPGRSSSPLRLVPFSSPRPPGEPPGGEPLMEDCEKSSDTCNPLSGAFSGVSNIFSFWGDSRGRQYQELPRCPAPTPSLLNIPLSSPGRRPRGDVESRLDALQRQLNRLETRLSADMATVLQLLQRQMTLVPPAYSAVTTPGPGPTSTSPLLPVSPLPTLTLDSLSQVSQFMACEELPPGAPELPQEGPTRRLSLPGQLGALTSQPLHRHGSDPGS
# Procedure text: Kv11.1 (hERG) ion channel activity (patch clamp assay), HEK293 cells transfected with hERG gene
# Measurement context: Ki [Kv1.11 hERG], hERG patch clamp assay (cells without asterisk)
Record form. Attribute: Ki. Fill in for each entry.

Consider COc1nccnc1C(C(N)=O)c1cc(-c2ncnc3cc(N4CCOCC4)cc(F)c23)c(F)cc1Cl (centres unmarked) [Example 261] . Its measured Ki is 15 to 25 µM

Consider Cn1c(C(O)c2cc(-c3ncnc4cc(N5CCOCC5)ccc34)ccc2F)cccc1=O (centres unmarked) [Example 401] . Its measured Ki is 10 to 15 µM

Consider OC(c1ccc(F)c(-c2ncnc3cc(N4CCOCC4)ccc23)c1)c1nncc2sccc12 (centres unmarked) [Example 333] . Its measured Ki is 15 to 25 µM

Consider OC(c1cn2ccsc2n1)c1cc(-c2ncnc3cc(N4CCOCC4)ccc23)c(F)cc1F (centres unmarked) [Example 474] . Its measured Ki is 10 to 15 µM

Consider OC(c1cc(-c2ncnc3cc(N4CCOCC4)ccc23)c(F)cc1F)c1nccnc1OC(F)F (centres unmarked) [Example 450] . Its measured Ki is 15 to 25 µM

Consider NC(=O)C(c1cc(-c2ncnc3cc(N4CCOCC4)ccc23)c(F)cc1F)c1nccn2cccc12 (centres unmarked) [Example 348] . Its measured Ki is 10 to 15 µM

Consider OC(c1cc(-c2ncnc3cc(N4CCOCC4)ccc23)c(F)cc1F)c1nncc2sccc12 (centres unmarked) [Example 341] . Its measured Ki is 15 to 25 µM

Consider OC(c1cc(-c2ncnc3cc(N4CCOCC4)ccc23)ccc1Cl)c1ncncc1F (centres unmarked) [Example 390] . Its measured Ki is 15 to 25 µM

* * *

# Assayed target: DNA-PK phosphorylation at serine 2056 (Homo sapiens (Human), UniProt P78527)
# Procedure text: DNA-PK phosphorylation at serine 2056 (cellular), bleomycin-treated HCT116 cells, ELISA
# Assay type: cell-based
# Measurement context: cellular DNA-PK phosphorylation at serine 2056, HCT116; read-out: IC50 pDNA-PK
Measured parameter: IC50

Consider OC(c1ccc(F)c(-c2ncnc3cc(N4CCOCC4)ccc23)c1)c1nncc2ccsc12 (stereo not shown) [Example 332] . Its measured IC50 is < 0.5 µM

Consider COc1nnccc1C(C(N)=O)c1cc(-c2ncnc3cc(N4CCOCC4)ccc23)c(F)cc1Cl (stereo not shown) [Example 307] . Its measured IC50 is 5 to 10 µM

Consider Cc1nccnc1C(O)c1ccc(F)c(-c2ncnc3cc(N4CCOCC4)sc23)c1 (stereo not shown) [Example 246] . Its measured IC50 is 0.5 to 5 µM

Consider OC(c1cc(-c2ncnc3cc(N4CCOCC4)ccc23)c(F)cc1F)c1nccnc1OC(F)F (stereo not shown) [Example 451] . Its measured IC50 is 0.5 to 5 µM

* * *

# Assayed target: DNA-PK phosphorylation at serine 2056 (Homo sapiens (Human), UniProt P78527)
# Procedure text: DNA-PK phosphorylation at serine 2056 (cellular), bleomycin-treated HCT116 cells, ELISA
# Type: cell-based
# Measurement context: cellular DNA-PK phosphorylation at serine 2056, HCT116; read-out: IC50 pDNA-PK
Measured parameter: IC50

Consider OC(c1cccnn1)c1cc(-c2ncnc3cc(N4CCOCC4)ccc23)ccc1Cl (single isomer, unassigned) [Example 469] . Its measured IC50 is 10 to 30 µM

Consider COc1ccc(C(O)c2cc(-c3ncnc4cc(N5CCOCC5)cnc34)c(F)cc2Cl)nn1 (stereo not shown) [Example 228] . Its measured IC50 is 10 to 30 µM

Consider Cn1ncc2c(C(O)c3cc(-c4ncnc5cc(N6CCOCC6)ccc45)c(F)cc3Cl)ncnc21 (stereo not shown) . Its measured IC50 is 0.5 to 5 µM

Consider OC(c1ccc(F)c(-c2ncnc3cc(N4CCOCC4)ccc23)c1)c1nnc2ccccn12 (stereo not shown) [Example 344] . Its measured IC50 is 5 to 10 µM

Consider OC(c1cc(-c2ncnc3cc(N4CCOCC4)ccc23)c(F)cc1Cl)c1ncnc2ccoc12 (stereo not shown) [Example 452] . Its measured IC50 is < 0.5 µM

Consider OC(c1cc(-c2ncnc3cc(N4CCOCC4)ccc23)c(F)cc1F)c1nncc2ccsc12 (stereo not shown) . Its measured IC50 is < 0.5 µM

Consider Cc1cncnc1C(O)c1cc(-c2ncnc3cc(N4CCOCC4)ccc23)ccc1Cl (stereo not shown) [Example 418] . Its measured IC50 is 0.5 to 5 µM

Consider NC(=O)C(c1cc(-c2ncnc3cc(N4CCOCC4)ccc23)ccc1Cl)c1nccnc1Cl (stereo not shown) . Its measured IC50 is 10 to 30 µM

Consider COc1ccc(C(C(N)=O)c2cc(-c3ncnc4cc(N5CCOCC5)sc34)c(F)cc2Cl)nn1 (stereo not shown) . Its measured IC50 is 0.5 to 5 µM

Consider Cc1cncnc1C(O)c1cc(-c2ncnc3cc(N4CCOCC4)ccc23)ccc1Cl (stereo not shown) [Example 417] . Its measured IC50 is 0.5 to 5 µM

Consider COc1ccc(C(O)c2ccc(F)c(-c3ncnc4cc(N5CCOCC5)cc(F)c34)c2)nn1 (stereo not shown) [Example 256] . Its measured IC50 is < 0.5 µM

Consider OC(c1cc(-c2ncnc3cc(N4CCOCC4)ccc23)c(F)cc1F)c1nncc2ccoc12 (stereo not shown) . Its measured IC50 is < 0.5 µM

Consider Cn1cnc2ncnc(C(O)c3ccc(F)c(-c4ncnc5cc(N6CCOCC6)ccc45)c3)c21 (stereo not shown) . Its measured IC50 is 0.5 to 5 µM

Consider Cc1nccnc1C(C(N)=O)c1cc(-c2ncnc3cc(N4CCOCC4)ccc23)ccc1Cl (stereo not shown) . Its measured IC50 is 5 to 10 µM

Consider COc1ccc(C(C(N)=O)c2cc(-c3ncnc4cc(N5CCOCC5)ccc34)c(F)cc2Cl)nn1 (stereo not shown) . Its measured IC50 is 10 to 30 µM

Consider Cc1cncnc1C(O)c1cc(-c2ncnc3cc(N4CCOCC4)ccc23)ccc1F (stereo not shown) . Its measured IC50 is 0.5 to 5 µM

The origin of these recorded values is patent US9732094B2.
